// data source = patent US6635786B2

Measured melting point, listed per entry.
measurement label: melting point

INSERT INTO measurements (compound, endpoint_result) VALUES
  ('O=C(CCN1CCN(c2ccccc2)CC1)c1ccc2oc3ccc(C(=O)CCN4CCN(c5ccccc5)CC4)cc3c(=O)c2c1 [Example 42]', '199 to 201 °C'),
  ('O=C(CCN1CCN(c2ccccc2)CC1)c1ccc2c(c1)Cc1cc(C(=O)CCN3CCN(c4ccccc4)CC3)ccc1O2 [Example 39]', '206 to 208 °C'),
  ('O=C(NCCc1ccccc1)c1ccc2c(c1)C(=O)c1cc(C(=O)NCCc3ccccc3)ccc1-2 [Example 56]', '327 to 329 °C'),
  ('O=C(NCCCc1ccccc1)c1ccc2c(c1)C(=O)c1cc(C(=O)NCCCc3ccccc3)ccc1-2 [Example 16]', '162 to 165 °C'),
  ('O=C(CCN1CCN(c2cccc(C(F)(F)F)c2)CC1)c1ccc2oc3ccc(C(=O)CCN4CCN(c5cccc(C(F)(F)F)c5)CC4)cc3c(=O)c2c1 [Example 41]', '166 to 167 °C'),
  ('O=C(OCc1ccccc1)c1ccc2c(c1)C(Cl)(Cl)c1cc(C(=O)OCc3ccccc3)ccc1-2 [Example 1]', '159 to 162 °C'),
  ('O=C(NCCCc1ccccc1)c1ccc2c(c1)C(Cl)(Cl)c1cc(C(=O)NCCCc3ccccc3)ccc1-2 [Example 13]', '165 to 167 °C'),
  ('O=C(OCCCc1ccccc1)c1ccc2c(c1)C(Cl)(Cl)c1cc(C(=O)OCCCc3ccccc3)ccc1-2 [Example 2]', '91 to 92 °C'),
  ('O=C(c1cccc(C(=O)N2CCN(c3ccccc3)CC2)c1)c1cccc(C(=O)N2CCN(c3ccccc3)CC2)c1 [Example 22]', '157 to 158 °C');
